# experiment.notes: RPMI8226 myeloma cell viability, profiling panel, resazurin fluorescence, basal, 24 h, PK04 Diversity Set (AID 1180);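 further: RPMI8826 multiple myeloma cell line at 5000 cells per well; test concentration not given here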
# test.parameters: higher = more signal
test.readout: z-score

molecule | reported.measurement
CCCC[C@@H]1C[C@H]1[C@@H](NS(=O)(=O)c1cccc2cccnc12)c1ccc(-c2ccccc2)cc1 | -0.611
COC(=O)[C@@H]1N=C(c2ccc(OCCCO)cc2)O[C@@H]1c1ccccc1N=[N+]=[N-] | 0.0154
COCCCNC(=O)[C@@]1(C)c2ccccc2C(=O)N(Cc2ccc(OC(F)(F)F)cc2)[C@H]1c1ccc(CO)cc1 | -0.661
Cn1cccc1C(O)C1C=CC2C(=O)NC(=O)C2N1Nc1ccccn1 (stereo not drawn) | -0.868
CCOC(=O)CCN1C(=O)[C@H]2[C@H]3[C@H](O)C=CC(=O)[C@@H]3CC[C@H]2C1=O | 0.353
COc1ccccc1CN1C(=O)c2ccccc2[C@@H](C(=O)NCC(F)(F)F)[C@@H]1c1ccc(CO)cc1 | 0.268
CC(CCN1CCc2nc(-c3ccccc3)c(-c3ccccc3)cc2C1)=NO[C@@H](C)c1cn([C@H](CO)Cc2ccccc2)nn1 | -0.914
COc1ccc(O[C@H]2C=C[C@@H](c3ccccc3)O[C@@H]2COC(=O)CCC(C)=NOC[C@@H](C)[C@H](OCc2ccccc2)C(C)C)cc1 | 0.0668
